concentration at 0.05 h by entry:
Assay Summary: Mouse pharmacokinetic study, intravenous dosing
Assay type: in vivo
Cond: male, C57BL/6, mouse, iv; plasma, 10 mg/kg i.v., time 0.05 h; read-out: Parent compound concentration following intravenous administration
The reply should be a number in ng/mL, with the unit left off.

The cases that follow already have their concentration at 0.05 h on record.
| Compound | concentration at 0.05 h, ng/mL |
| --- | --- |
| C=C(CC(=O)OC1CCCCC1)C(=O)OCc1nnn[nH]1 [Example 125] | 11900 |
| C=C(CC(=O)OC(C)(C)CCCCC)C(=O)OCC(=O)O [Example 193] | 28800 |

In plain terms, C=C(CC(=O)OC1CCCCCCC1)C(=O)OCCC(=O)O [Example 82] has a documented concentration at 0.05 h of 17600
